Species on record: Mus musculus
Test: Audiogenic seizures after concomitant treatment with Flumazenil (8.24 uM) in DBA / 2 mice clonic phase
Assay type: functional
endpoint: ED50 (µmol/kg)

1) COc1cc2c(cc1OC)C(c1ccc(N)cc1)=NN(C)C(=O)C2 = 51.2
2) COc1cc2c(cc1OC)C(c1ccccc1)=NNC(=O)C2 = 38.2
3) CC1=NN=C(c2ccc(N)cc2)c2cc3c(cc2C1)OCO3 = 37.8
4) COc1cc2c(cc1OC)C(c1ccc(N)cc1)=NNC(=O)C2 = 14.1
5) COc1cc2c(cc1OC)C(c1cccc(N)c1)=NNC(=O)C2 = 21
